// provenance: patent US6914045B2

Tested on: Enterococcus sp.
Assay: in vitro antibacterial evaluation, MIC by broth dilution
Format: cell-based
Conditions: Enterococcus faecium (GC 4557); broth dilution, 18 hours at 35° C.
From the text: Methods for in vitro Antibacterial Evaluation (Table 1) […]
Numbered stars: 1 amine (or outer) side, 2 acyl side, 3 side chain; on linkers, the order of the positions; unused ones are H or OH. Square brackets hold non-standard residues; d marks the D form. Peptide text beside a SMILES is read from it. * marks the point of attachment. ξ: configuration not given here. X1 = N=C1NCC(C(O)C(N[*:1])C(=O)[*:2])N1C1OC(CO)C(O)C(O)C1O; ξEnduracididine(βξ-OH,4'ξ) = N=C1NCC(C(O)C(N)C(=O)O)N1; X2 = OCC1OC(OC2C(CO)OC(*)C(O)C2O)C(O)C(O)C1O
parameter_measured: MIC Enterococcus faecium (GC 4557) (µg/mL)
Could you give me the number in µg/mL? Just the number is fine.

So what's the measured MIC Enterococcus faecium (GC 4557) for this one? CCCC(C)C1OCC2OC(OC3C(CO)OC(Oc4ccc(CC5NC(=O)C(C(C)c6ccccc6)NC(=O)CNC(=O)C(CO)NC(=O)C(C(O)C6CNC(=N)N6C6OC(CO)C(O)C(O)C6O)NC(=O)C(C(O)C6CNC(=N)N6)NC5=O)cc4)C(O)C3O)C(O)C(O)C2O1 (stereo not shown)
0.5

Same lookup for CCCCCCN=C1NCC(C(O)C2NC(=O)C(C(O)C3CNC(=N)N3)NC(=O)C(Cc3ccc(OC4OC(CO)C(OC5OC6COC7(OC6C(O)C5O)C5CC6CC(C5)CC7C6)C(O)C4O)cc3)NC(=O)C(C(C)c3ccccc3)NC(=O)CNC(=O)C(CO)NC2=O)N1C1OC(CO)C(O)C(O)C1O (stereo not shown) , please.
1

Same lookup for CCCCCCCC1OCC2OC(OC3C(CO)OC(Oc4ccc(CC5NC(=O)C(C(C)c6ccccc6)NC(=O)CNC(=O)C(CO)NC(=O)C(C(O)C6CNC(=N)N6C6OC(CO)C(O)C(O)C6O)NC(=O)C(C(O)C6CNC(=N)N6)NC5=O)cc4)C(O)C3O)C(O)C(O)C2O1 (stereo not shown) , please.
1

Same lookup for N=C1NCC(C(O)C2NC(=O)C(Cc3ccc(OC4OC(CO)C(OC5OC(CO)C(O)C(O)C5O)C(O)C4O)cc3)NC(=O)C(Cc3ccccc3)NC(=O)CNC(=O)C(CO)NC(=O)C(C(O)C3CNC(=N)N3C3OC(CO)C(O)C(O)C3O)NC2=O)N1 (stereo not drawn) [Example 282] (cyclo(GFY(X2)[ξEnduracididine(βξ-OH,4'ξ)][X1]S); configuration not given here) , please.
128
